assay: in vitro; conditions: human, h1 hela cells
Experimental endpoint: CC50

> print(dat)
                                     smiles  experimental.endpoint      result
1  OC[C@@]1(F)O[C@@H](n2ccc3c(C4CC4)ncnc32)[C@H](O)[C@@H]1O                   CC50     > 99 µM
2  NC(=O)c1cn([C@@H]2O[C@](F)(CO)[C@@H](O)[C@H]2O)c2ncnc(N)c12                   CC50  1 to 10 µM
3  Nc1nc(F)nc2c1ncn2[C@@H]1O[C@](F)(CO)[C@@H](O)[C@H]1O                   CC50  1 to 10 µM

---

Recorded measurements of CC50 at 24 h, one per entry
assay: in vitro; conditions: human, hela-ace2 cells

Molecule	CC50 at 24 h
OC[C@]1(F)O[C@@H](n2ccc3c(Cl)ncnc32)[C@H](O)[C@@H]1O [Example 5]	> 99 µM
CCOc1nc(N)nc2c1ncn2[C@@H]1O[C@](F)(CO)[C@@H](O)[C@]1(F)Cl [Example 66]	> 99 µM
CO[C@]1(CO)O[C@@H](c2ccc3c(N)ncnn23)[C@](C)(O)[C@@H]1O [Example 3]	> 99 µM
N#C[C@@]1(c2cnc3c(N)ncnn23)O[C@](F)(CO)[C@@H](O)[C@H]1O [Example 51]	> 99 µM
Nc1ncnc2c1ccn2[C@@H]1O[C@@](CO)(CF)[C@@H](O)[C@H]1O [Example 20]	10 to 99 µM
Nc1nc(Cl)nc2c1ncn2[C@@H]1O[C@](F)(CO)[C@@H](O)[C@H]1O [Example 43]	> 99 µM
OC[C@@]1(F)O[C@@H](n2ccc3c(F)ncnc32)[C@H](O)[C@@H]1O [Example 13]	10 to 99 µM
COc1ncnc2c1ccn2[C@@H]1O[C@](F)(CO)[C@@H](O)[C@H]1O [Example 41]	10 to 99 µM
CCOc1nc(N)nc2c1ncn2[C@@H]1O[C@](F)(CO)[C@@H](O)[C@@]1(C)Cl [Example 63]	> 99 µM
Nc1nc(Cl)c2ccn([C@@H]3O[C@](F)(CO)[C@@H](O)[C@H]3O)c2n1 [Example 27]	10 to 99 µM
CC(C)OC(=O)[C@H](C)N[P@](=O)(OC[C@@]1(F)O[C@@H](n2ccc3c(N)ncnc32)[C@H](O)[C@@H]1O)Oc1ccccc1 [Example 48]	10 to 99 µM
CNc1nc(N)nc2c1ccn2[C@@H]1O[C@](F)(COC(=O)c2ccccc2)[C@@H](O)[C@H]1O [Example 56]	> 99 µM
Nc1ncnc2c1cnn2[C@@H]1O[C@](F)(CO)[C@@H](O)[C@H]1O [Example 52]	1 to 10 µM
O=c1[nH]cnc2c1ccn2[C@@H]1O[C@](F)(CO)[C@@H](O)[C@H]1O [Example 16]	> 99 µM
OC[C@@]1(F)O[C@@H](n2cc(Br)c3cncnc32)[C@H](O)[C@@H]1O [Example 25]	< 1 µM
CCOc1nc(N)nc2c1ncn2[C@@H]1O[C@](F)(COP(=O)(N[C@@H](C)C(=O)OC(C)C)Oc2ccccc2)[C@@H](O)[C@@]1(C)Cl (stereo partly shown) [Example 64]	10 to 99 µM
CSc1nc(N)nc2c1ncn2[C@@H]1O[C@](F)(CO)[C@@H](O)[C@H]1O [Example 28]	1 to 10 µM
CSc1ncnc2c1ccn2[C@@H]1O[C@](F)(CO)[C@@H](O)[C@H]1O [Example 72]	10 to 99 µM
[N-]=[N+]=N[C@]1(CO)C[C@@H](O)[C@H](n2ccc3c(N)ncnc32)O1 [Example 8]	> 99 µM
NC(=O)c1cc([C@@H]2O[C@](F)(COC(=O)c3ccccc3)[C@@H](O)[C@H]2O)n2ncnc(N)c12 [Example 34]	1 to 10 µM
CC(C)OC(=O)[C@H](C)N[P@@](=O)(OC[C@@]1(F)O[C@@H](n2ccc3c(N)ncnc32)[C@H](O)[C@@H]1O)Oc1ccccc1 [Example 49]	> 99 µM
Nc1ncnc2c1c(CO)cn2[C@@H]1O[C@](F)(CO)[C@@H](O)[C@H]1O [Example 17]	> 99 µM
COc1ncnc2c1c(F)cn2[C@@H]1O[C@](F)(CO)[C@@H](O)[C@H]1O [Example 22]	1 to 10 µM
C#Cc1nc(N)c2ncn([C@@H]3O[C@](F)(CO)[C@@H](O)[C@H]3O)c2n1 [Example 18]	> 99 µM
Nc1ncnn2c([C@@H]3O[C@](F)(CO)[C@@H](O)[C@H]3O)cnc12 [Example 19]	1 to 10 µM

---

test: in vitro; details: human, hela-ace2 cells
Recorded measurements of CC50 at 24 h, one per entry
Experimental endpoint: CC50 at 24 h

> print(dat)
                                     smiles       result
1  Nc1ncnc2c1ccn2[C@@H]1O[C@](F)(CO)[C@@H](O)[C@]1(F)Cl      > 99 µM
2  N#Cc1ncnc2c1ccn2[C@@H]1O[C@](F)(COC(=O)c2ccccc2)[C@@H](O)[C@H]1OC(=O)c1ccccc1  10 to 99 µM
3  O=c1[nH]cnc2c1c(F)cn2[C@@H]1O[C@](F)(CO)[C@@H](O)[C@H]1O      > 99 µM
4  OC[C@@]1(F)O[C@@H](n2cc(Cl)c3cncnc32)[C@H](O)[C@@H]1O   1 to 10 µM

---

assay: in vitro; details: human, h1 hela cells
Recorded measurements of CC50, one per entry
Experimental endpoint: CC50

Compound	Experimental endpoint	Result
CC(=O)O[C@H]1[C@H](n2ncc(=O)[nH]c2=O)O[C@](F)(COC(=O)c2ccccc2)[C@H]1OC(C)=O	CC50	> 99 µM
Nc1ncnc2c1ccn2[C@@H]1O[C@@](F)(CO)C[C@H]1O	CC50	10 to 99 µM
CNc1nc(N)nc2c1ncn2[C@@H]1O[C@](F)(COP(=O)(N[C@@H](C)C(=O)OC(C)C)Oc2ccccc2)[C@@H](O)[C@]1(F)Cl (single isomer, unassigned) [Example 59]	CC50	> 99 µM
C[C@]1(O)[C@H](c2ccc3c(N)ncnn23)O[C@@](CO)(N=[N+]=[N-])[C@H]1O	CC50	> 99 µM
C[C@]1(O)[C@H](n2ccc3c(N)ncnc32)O[C@](F)(CO)[C@H]1O	CC50	> 99 µM
C#C[C@]1(O)[C@H](n2ccc3c(NCCC)ncnc32)O[C@](F)(CO)[C@H]1O	CC50	10 to 99 µM
Nc1ncnc2c1ccn2[C@@H]1O[C@](F)(CO)C[C@H]1O	CC50	10 to 99 µM
Nc1ncnc2c1c(Cl)cn2[C@@H]1O[C@](F)(CO)[C@@H](O)[C@H]1O	CC50	1 to 10 µM
CC(C)C(=O)OC[C@@]1(F)O[C@@H](n2ccc3c(N)ncnc32)[C@H](OC(=O)C(C)C)[C@@H]1OC(=O)C(C)C	CC50	10 to 99 µM
CSc1nc(N)nc2c1ncn2[C@@H]1O[C@](F)(CO)[C@@H](O)[C@H]1O	CC50	1 to 10 µM
CNc1nc(N)nc2c1ccn2[C@@H]1O[C@](F)(COC(=O)c2ccccc2)[C@@H](O)[C@H]1O	CC50	> 99 µM
OC[C@@]1(F)O[C@@H](n2ccc3c(F)ncnc32)[C@H](O)[C@@H]1O	CC50	10 to 99 µM
CCOc1nc(N)nc2c1ncn2[C@@H]1O[C@](F)(COP(=O)(N[C@@H](C)C(=O)OC(C)C)Oc2ccccc2)[C@@H](O)[C@@]1(C)Cl (stereo partly drawn)	CC50	10 to 99 µM
CO[C@]1(CO)O[C@@H](c2ccc3c(N)ncnn23)[C@](C)(O)[C@@H]1O	CC50	> 99 µM
CC(C)OC(=O)[C@H](C)N[P@@](=O)(OC[C@@]1(F)O[C@@H](n2ccc3c(N)ncnc32)[C@H](O)[C@@H]1O)Oc1ccccc1	CC50	> 99 µM

---

Recorded measurements of CC50, one per entry
test: in vitro; details: human, hep2 cells

Compound	CC50
CCOc1nc(N)nc2c1ncn2[C@@H]1O[C@](F)(CO)[C@@H](O)[C@]1(F)Br [Example 68]	10 to 99 µM
C[C@H](NP(=O)(OC[C@@]1(F)O[C@@](C#N)(c2cnc3c(N)ncnn23)[C@H](O)[C@@H]1O)Oc1cccc2ccccc12)C(=O)OCC(C)(C)C (stereo partly drawn) [Example 65]	10 to 99 µM
COc1ncnc2c1ccn2[C@@H]1O[C@](F)(CO)[C@@H](O)[C@H]1O [Example 41]	10 to 99 µM
CCOc1nc(N)nc2c1ncn2[C@@H]1O[C@](F)(CO)[C@@H](O)C1(F)F [Example 60]	> 99 µM
COc1ncnc2c1ccn2[C@@H]1O[C@](F)(CO)C[C@H]1O [Example 39]	> 99 µM
Cc1ncnc2c1ccn2[C@@H]1O[C@](F)(CO)[C@@H](O)[C@H]1O [Example 53]	> 99 µM
Nc1ncnc2c1c(F)cn2[C@@H]1O[C@](F)(CO)[C@@H](O)[C@H]1O [Example 15]	1 to 10 µM
CCOc1nc(N)nc2c1ncn2[C@@H]1O[C@](F)(COP(=O)(N[C@@H](C)C(=O)OC(C)C)Oc2ccccc2)[C@@H](O)[C@@]1(C)Cl (stereo partly drawn) [Example 64]	10 to 99 µM
COc1ncnc2c1c(F)cn2[C@@H]1O[C@](F)(CO)[C@@H](O)[C@H]1O [Example 22]	10 to 99 µM
Nc1ncnc2c1ccn2[C@@H]1C[C@](F)(CO)[C@@H](O)[C@H]1O [Example 30]	1 to 10 µM
Nc1ncnc2c1cnn2[C@@H]1O[C@](F)(CO)[C@@H](O)[C@H]1O [Example 52]	1 to 10 µM
CSc1nc(N)nc2c1ncn2[C@@H]1O[C@](F)(CO)[C@@H](O)[C@H]1O [Example 28]	1 to 10 µM
OC[C@@]1(F)O[C@@H](n2cc(Br)c3cncnc32)[C@H](O)[C@@H]1O [Example 25]	10 to 99 µM
C#C[C@]1(O)[C@H](n2ccc(N)nc2=O)O[C@](F)(CO)[C@H]1O [Example 44]	10 to 99 µM
NC(=O)c1cn([C@@H]2O[C@](F)(CO)[C@@H](O)[C@H]2O)c2ncncc12 [Example 24]	10 to 99 µM
[N-]=[N+]=N[C@]1(CO)O[C@@H](n2ccc3c(N)ncnc32)[C@@](F)(Cl)[C@@H]1O [Example 7]	> 99 µM
CCOc1nc(N)nc2c1ncn2[C@@H]1O[C@](F)(CO)[C@@H](O)[C@@]1(C)Cl [Example 63]	> 99 µM
CCOc1nc(N)nc2c1ncn2[C@@H]1O[C@](F)(CO[P@@](=O)(N[C@@H](C)C(=O)OC(C)C)Oc2ccccc2)[C@@H](O)[C@]1(F)Cl [Example 67]	10 to 99 µM
CC(=O)O[C@H]1[C@H](n2ncc(=O)[nH]c2=O)O[C@](F)(COC(=O)c2ccccc2)[C@H]1OC(C)=O [Example 45]	> 99 µM
OC[C@@]1(F)O[C@@H](n2ccc3c(Cl)ncnc32)[C@H](O)[C@@H]1O [Example 4]	10 to 99 µM
N#C[C@]1(CO)O[C@@H](n2ccc3c(N)ncnc32)[C@H](O)[C@@H]1O [Example 32]	> 99 µM
Nc1ncnc2c1ccn2[C@@H]1O[C@](F)(CO)C[C@H]1O [Example 11]	> 99 µM
Nc1ncnc2c1ccn2[C@@H]1O[C@](F)(CO)[C@@H](O)[C@]1(F)Cl [Example 6]	> 99 µM
O=c1[nH]cnc2c1ccn2[C@@H]1O[C@](F)(CO)[C@@H](O)[C@H]1O [Example 16]	> 99 µM
